- Tested on: Aβ42 production
- PROCEDURE_SUMMARY: Sandwich ELISA measurement of Aβ42 levels in supernatant of treated N2a-APP695 cells
- Format: cell-based, Mouse
- MEASUREMENT_SETUP: Mus musculus; N2a-APP695 cells, 18h incubation, ELISA assay; read-out: EC50 (µM) at inducing Aβ42 production
- Protocol: Mouse neuroblastoma cells (N2a cells) or N2a-APP695 cells (N2a cell line stably transfected with APP695, an amyloid precursor protein) were cultured in an essential medium composed of Dulbecco's minimal essential medium (DMEM) and of OptiMEM® (1:1, v/v) (Gibco®) containing 0.2 mg/mL Geniticin (Geneticin® Selective Antibiotic, Gibco®) and 5 % fetal bovine serum (FBS, Gibco®, EU approved origin) in a humidified, 5% CO2 incubator at 37°C. […] The EC50 of the molecules tested were thus calculated.
// classify: if (EC50 < 10 µM) MET else NOT MET

> print(dat)
                              sample.smiles  discrete.label
1  CC[C@H](CO)Nc1nc(N(CC)c2ccccc2)c2ncn(C(C)C)c2n1         NOT MET
2  CC[C@H](CO)Nc1nc(N2CCc3ccccc3C2)c2ncn(C(C)C)c2n1             MET
3  CC[C@H](CO)Nc1nc(OCc2ccccc2)c2ncn(C(C)C)c2n1         NOT MET
4         CC(C)n1cnc2c(N(C)Cc3ccccc3)ncnc21         NOT MET

API: query returns whether the compound falls strictly under 10 µM in EC50. Query: CC[C@@H](CO)Nc1nc(N(C)Cc2ccc(F)cc2)c2ncn(C(C)C)c2n1
NOT MET
